- Tested on: HSV-1 K26-GFP infected primary human skin cells
- protocol-description: % change of HSV-1 GFP signal vs untreated infected cells; higher = less antiviral inhibition
- run-conditions: 0.003 µM; cell type: primary keratinocytes; donor: 5; time (h post infection): 20
Measured % change of HSV-1 GFP signal accompanies every entry in the list below.
Supply the numeric figure in %, leaving out any unit text.

Here are 5 molecules together with their reported answers.
Cc1cccc(C)c1N(CC(=O)Nc1ccc(-c2ncon2)cc1)C(=O)C1CCS(=O)(=O)CC1    2.94
Nc1ccn([C@@H]2O[C@H](CO)[C@@H](O)C2(F)F)c(=O)n1    7.7
CC1(C)CC(=O)c2c(C(F)(F)F)nn(-c3ccc(C(N)=O)c(N[C@H]4CC[C@H](O)CC4)c3)c2C1    -1.8
O=C(/C=C\n1cnc(-c2cc(C(F)(F)F)cc(C(F)(F)F)c2)n1)NNc1ccccn1 [Verdinexor]    3.84
CC(=O)O[C@H]1C[C@H](O[C@H]2[C@@H](O)C[C@H](O[C@H]3[C@@H](O)C[C@H](O[C@H]4CC[C@@]5(C)[C@H](CC[C@@H]6[C@@H]5C[C@@H](O)[C@]5(C)[C@@H](C7=CC(=O)OC7)CC[C@]65O)C4)O[C@@H]3C)O[C@@H]2C)O[C@H](C)[C@H]1O[C@@H]1O[C@H](CO)[C@@H](O)[C@H](O)[C@H]1O [Lanatoside C]    12.4

Now for the molecule whose % change of HSV-1 GFP signal we want.
Need % change of HSV-1 GFP signal, item C=CC(=O)N1CC/C(=C\c2ccc(F)c([N+](=O)[O-])c2)C(=O)/C(=C/c2ccc(F)c([N+](=O)[O-])c2)C1
5.79

* * *

- Tested on: HSV-1 K26-GFP infected primary human skin cells
- protocol-description: % change of HSV-1 GFP signal vs untreated infected cells; higher = less antiviral inhibition
- run-conditions: 0.0274 µM; cell type: primary keratinocytes; donor: 5; time (h post infection): 20
Catalogue of % change of HSV-1 GFP signal readings, one per entry.
Expressed in %, but write only the number.

Solved entries (count: 3):
O=C(Nc1ccc([N+](=O)[O-])cc1Cl)c1cc(Cl)ccc1O [Niclosamide]    0.0858
CC1(C)CC(=O)c2c(C(F)(F)F)nn(-c3ccc(C(N)=O)c(N[C@H]4CC[C@H](O)CC4)c3)c2C1    -15.1
Nc1ccn([C@@H]2O[C@H](CO)[C@@H](O)C2(F)F)c(=O)n1    9.71

Next:
Entry Cc1nc(N(C)C(=O)Cc2ccc(-c3ccccn3)cc2)sc1S(N)(=O)=O has what % change of HSV-1 GFP signal?
-6.85

* * *

- System: HSV-1 K26-GFP infected 3D skin equivalent
- protocol-description: % change of tdTomato fibroblast signal relative to infected DMSO control; higher = higher signal (negative = inhibition / toxicity)
- run-conditions: 10 µM; time (h post infection): 48; model: ALI
experimental-endpoint: % change of tdTomato fibroblast signal (%)
# unit: % | format: bare number

Recorded results for 9 compounds are shown here.
O=C(Nc1ccc([N+](=O)[O-])cc1Cl)c1cc(Cl)ccc1O [Niclosamide]    -8.58
Nc1ccn([C@@H]2O[C@H](CO)[C@@H](O)C2(F)F)c(=O)n1 [Gemcitabine]    -5.25
COc1ccc(-c2nc(N3CCOCC3)c3sc(CN(C)c4ncc(C(=O)NO)cn4)cc3n2)cn1 [Fimepinostat]    -11
CC1(C)CC(=O)c2c(C(F)(F)F)nn(-c3ccc(C(N)=O)c(N[C@H]4CC[C@H](O)CC4)c3)c2C1 [SNX-2112]    -32.3
Cc1nc(N(C)C(=O)Cc2ccc(-c3ccccn3)cc2)sc1S(N)(=O)=O [Pritelivir]    12
CC(C)c1cnn2c(NCc3ccccc3-n3cccn3)nc(OC3CCCNC3)nc12 (stereo not given) [LDC4297]    1.92
Cc1cccc(C)c1N(CC(=O)Nc1ccc(-c2ncon2)cc1)C(=O)C1CCS(=O)(=O)CC1 [Amenamevir]    -8.92
C=CC(=O)N1CC/C(=C\c2ccc(F)c([N+](=O)[O-])c2)C(=O)/C(=C/c2ccc(F)c([N+](=O)[O-])c2)C1 [VLX1570]    -25.4
CC(=O)O[C@H]1C[C@H](O[C@H]2[C@@H](O)C[C@H](O[C@H]3[C@@H](O)C[C@H](O[C@H]4CC[C@@]5(C)[C@H](CC[C@@H]6[C@@H]5C[C@@H](O)[C@]5(C)[C@@H](C7=CC(=O)OC7)CC[C@]65O)C4)O[C@@H]3C)O[C@@H]2C)O[C@H](C)[C@H]1O[C@@H]1O[C@H](CO)[C@@H](O)[C@H](O)[C@H]1O [Lanatoside C]    -4.98

We now examine a further compound.
So what does the record say about % change of tdTomato fibroblast signal for O=C(/C=C\n1cnc(-c2cc(C(F)(F)F)cc(C(F)(F)F)c2)n1)NNc1ccccn1 [Verdinexor] ?
-6.29

* * *

- Test system: HSV-1 K26-GFP infected 3D skin equivalent
- protocol-description: % activity on HSV-1 GFP signal (0 = infected DMSO control, -100 = uninfected control); higher = higher signal (negative = inhibition / toxicity)
- run-conditions: 0.123457 µM; time (h post infection): 48; model: ALI
experimental-endpoint: % activity on HSV-1 GFP signal
State the value with its unit after it.

Examples with their reported % activity on HSV-1 GFP signal follow.
COc1ccc(-c2nc(N3CCOCC3)c3sc(CN(C)c4ncc(C(=O)NO)cn4)cc3n2)cn1 [Fimepinostat]    -97.4%
O=C(/C=C\n1cnc(-c2cc(C(F)(F)F)cc(C(F)(F)F)c2)n1)NNc1ccccn1 [Verdinexor]    -30.1%

Item Cc1cccc(C)c1N(CC(=O)Nc1ccc(-c2ncon2)cc1)C(=O)C1CCS(=O)(=O)CC1 has what recorded % activity on HSV-1 GFP signal?
-40.4%

Consider the compound shown here: CC(=O)O[C@H]1C[C@H](O[C@H]2[C@@H](O)C[C@H](O[C@H]3[C@@H](O)C[C@H](O[C@H]4CC[C@@]5(C)[C@H](CC[C@@H]6[C@@H]5C[C@@H](O)[C@]5(C)[C@@H](C7=CC(=O)OC7)CC[C@]65O)C4)O[C@@H]3C)O[C@@H]2C)O[C@H](C)[C@H]1O[C@@H]1O[C@H](CO)[C@@H](O)[C@H](O)[C@H]1O [Lanatoside C] What is its recorded % activity on HSV-1 GFP signal?
-95.2%

What % activity on HSV-1 GFP signal value was documented for this compound, CC1(C)CC(=O)c2c(C(F)(F)F)nn(-c3ccc(C(N)=O)c(N[C@H]4CC[C@H](O)CC4)c3)c2C1 ?
-99.7%

Please report the recorded % activity on HSV-1 GFP signal for O=C(Nc1ccc([N+](=O)[O-])cc1Cl)c1cc(Cl)ccc1O [Niclosamide] .
-58.6%

* * *

- Test system: HSV-1 K26-GFP infected primary human skin cells
- protocol-description: % change of HSV-1 GFP signal vs untreated infected cells; higher = less antiviral inhibition
- run-conditions: 0.7407 µM; cell type: primary keratinocytes; donor: 5; time (h post infection): 20
experimental-endpoint: % change of HSV-1 GFP signal (%)
Lab book: enter the figure in %, no units written.

Cc1cccc(C)c1N(CC(=O)Nc1ccc(-c2ncon2)cc1)C(=O)C1CCS(=O)(=O)CC1    -67.5

// next entry
What % change of HSV-1 GFP signal appears in the records for this molecule with HSV-1 K26-GFP infected primary human skin cells? CC(=O)O[C@H]1C[C@H](O[C@H]2[C@@H](O)C[C@H](O[C@H]3[C@@H](O)C[C@H](O[C@H]4CC[C@@]5(C)[C@H](CC[C@@H]6[C@@H]5C[C@@H](O)[C@]5(C)[C@@H](C7=CC(=O)OC7)CC[C@]65O)C4)O[C@@H]3C)O[C@@H]2C)O[C@H](C)[C@H]1O[C@@H]1O[C@H](CO)[C@@H](O)[C@H](O)[C@H]1O [Lanatoside C]
-99.9

* * *

- System: HSV-1 K26-GFP infected primary human skin cells
- protocol-description: % change of HSV-1 GFP signal vs untreated infected cells; higher = less antiviral inhibition
- run-conditions: 0.0823 µM; cell type: primary dermal fibroblasts; donor: 3; time (h post infection): 48
experimental-endpoint: % change of HSV-1 GFP signal (%)
Value expressed in %; do not type the unit.

O=C(/C=C\n1cnc(-c2cc(C(F)(F)F)cc(C(F)(F)F)c2)n1)NNc1ccccn1 [Verdinexor]    -1.6
CC1(C)CC(=O)c2c(C(F)(F)F)nn(-c3ccc(C(N)=O)c(N[C@H]4CC[C@H](O)CC4)c3)c2C1 [SNX-2112]    -87.9
O=C(Nc1ccc([N+](=O)[O-])cc1Cl)c1cc(Cl)ccc1O [Niclosamide]    -4.14

// next entry
Would you kindly share the measured % change of HSV-1 GFP signal for Nc1ccn([C@@H]2O[C@H](CO)[C@@H](O)C2(F)F)c(=O)n1 [Gemcitabine] ?
-96.7
